METRIC: melting point (°C)

STRUCTURE NOTATION | melting point, °C
O=Cc1ccc(OCc2ccc([N+](=O)[O-])cc2)cc1 | 130
CCCCCCCCCCCCCCCCCC(=O)OCCOC(=O)CCCCCCCCCCCCCCCCC | 79
COC(=O)c1ccc(O)c(OC)c1 | 64
c1ccc2c(c1)Cc1c-2ccc2ccccc12 | 190
O=C(O)Cc1ccc([N+](=O)[O-])cc1 | 154

I: FC(F)(F)C(F)(F)C(F)(F)C(F)(F)C(F)(F)C(F)(F)C(F)(F)F
II: Nc1nc(-c2ccc(Br)s2)cs1
Input: Hi there, can you help? I need to know whether I or II has lower measured melting point. Answer = label.
Output: I
(I: -78 °C, II: 170 °C)
